Data provenance: patent US6004967A

Assay: Plasma concentration after single IP dose
Format: in vivo
Settings: mouse, plasma; single dose 50 mg/kg IP, BALB/c nu/nu female mice, 5 min
// concentration at 5 min lookup, one value per entry
Number first, unit second.

# annotated cases, reported concentration at 5 min shown
Cc1ccc2ncnc(Nc3cccc(C(F)(F)F)c3)c2c1 4450 ng/mL
Cc1ccc2ncnc(Nc3cccc(Cl)c3)c2c1 7870 ng/mL
COc1cc2ncnc(Nc3cccc(Cl)c3)c2cc1OC 11500 ng/mL
COc1cc2ncnc(Nc3cccc(C(F)(F)F)c3)c2cc1OC 13300 ng/mL
COc1cc2ncnc(Nc3cccc(Br)c3)c2cc1OC 17900 ng/mL

Okay, next one:
Query block: Determine from records and report concentration at 5 min for COc1cc2ncnc(Nc3cccc(C#N)c3)c2cc1OC
Result block: 950 ng/mL

====

Test system: 3T3-PDGFR
Assay: cell growth assay, PDGFR expressing cells (3T3-PDGFR), selectivity
Format: cell-based
Conditions: ratio 3T3-PDGFR / 3T3-EGFR; 5760 min
observation.type: PDGFR/EGFR IC50/IC50
Field format: numeric only.

# annotated cases, reported PDGFR/EGFR IC50/IC50 shown
compound	observation.type	reading
COc1cc2ncnc(Nc3cccc(C#N)c3)c2cc1OC [A5]	PDGFR/EGFR IC50/IC50	67
Cc1ccc2ncnc(Nc3cccc(Cl)c3)c2c1 [A3]	PDGFR/EGFR IC50/IC50	5
COc1cc2ncnc(Nc3cccc(C(F)(F)F)c3)c2cc1OC [A4]	PDGFR/EGFR IC50/IC50	70

Okay, next one:
Query block: Determine from records and report PDGFR/EGFR IC50/IC50 for Cc1ccc2ncnc(Nc3cccc(C(F)(F)F)c3)c2c1 [A6]
Result block: 5

====

Test system: NIH 3T3 C7 cells engineered to express EGF-R (3T3-EGFR)
Experiment: 3T3 cell growth assay, EGF-R C7 cells (3T3-EGFR)
Format: cell-based
Settings: Mus musculus, NIH3T3, 96 h, read-out: 3T3-EGFR IC50
observation.type: IC50 (nM)
Respond with the bare value in nM.

COc1cc2ncnc(Nc3cccc(Br)c3)c2cc1OC 75

Okay, next one:
Query block: Determine from records and report IC50 for COc1cc2ncnc(Nc3cccc(Cl)c3)c2cc1OC
Result block: 110

====

Test: in vitro
Type: in vitro ADME, human
Settings: human, topical or ocular, concentration in the epidermis after 24 hours
observation.type: concentration at 24 h

Query block: Determine from records and report concentration at 24 h for COc1cc2ncnc(Nc3cccc(Br)c3)c2cc1OC
Result block: 141 to 355 µM

====

Target: human EGF-R (Homo sapiens)
Test: EGF-R whole cell kinase assay (EGF-R-3T3 ELISA)
Details: whole cell, EGF-stimulated EGF-R phosphorylation; free base; read-out: EGFR Kinase IC50
observation.type: pIC50
In textbook form, pIC50 equals minus log to base ten of the concentration in mol/L.

Query block: Provide pIC50, tested on human EGF-R (Homo sapiens), for Cc1ccc2ncnc(Nc3cccc(C(F)(F)F)c3)c2c1 .
Result block: 6.05

Query block: Provide pIC50, tested on human EGF-R (Homo sapiens), for Cc1ccc2ncnc(Nc3cccc(Cl)c3)c2c1 .
Result block: 7.24

Query block: Provide pIC50, tested on human EGF-R (Homo sapiens), for COc1cc2ncnc(Nc3cccc(C#N)c3)c2cc1OC .
Result block: 6.70

====

Assay: Plasma concentration after single IP dose
Assay type: in vivo
Details: mouse, plasma; single dose 50 mg/kg IP, BALB/c nu/nu female mice, 60 min
Decide using concentration at 1 h alone. Strictly below 2000 ng/mL: 1. Equal to or above 2000 ng/mL: -1.

// below: answered compounds
COc1cc2ncnc(Nc3cccc(C#N)c3)c2cc1OC 1
COc1cc2ncnc(Nc3cccc(C(F)(F)F)c3)c2cc1OC -1
COc1cc2ncnc(Nc3cccc(Cl)c3)c2cc1OC -1

Query block: Does the reported concentration at 1 h of the following compound sit strictly below 2000 ng/mL? Cc1ccc2ncnc(Nc3cccc(Cl)c3)c2c1
Result block: 1

Query block: Does the reported concentration at 1 h of the following compound sit strictly below 2000 ng/mL? Cc1ccc2ncnc(Nc3cccc(C(F)(F)F)c3)c2c1
Result block: 1

====

Test: Plasma concentration after single IP dose
Assay type: in vivo
Details: mouse, plasma; single dose 50 mg/kg IP, BALB/c nu/nu female mice, 15 min
Procedure: **Single dose (50 mg/kg), IP, in BALB/c, nu/nu, female mice.
observation.type: log10 concentration at […] (log10 of the value in ng/mL)
The figures below represent log10 of concentration at […], where concentration at […] is stated in ng/mL.

# annotated cases, reported log10 concentration at […] shown
compound	log10 concentration at […]
COc1cc2ncnc(Nc3cccc(C#N)c3)c2cc1OC [A5]	2.81
Cc1ccc2ncnc(Nc3cccc(C(F)(F)F)c3)c2c1 [A6]	3.30
Cc1ccc2ncnc(Nc3cccc(Cl)c3)c2c1 [A3]	3.54
COc1cc2ncnc(Nc3cccc(C(F)(F)F)c3)c2cc1OC [A4]	4.10
COc1cc2ncnc(Nc3cccc(Br)c3)c2cc1OC [A1]	3.80

Query block: Determine from records and report log10 concentration at […] for COc1cc2ncnc(Nc3cccc(Cl)c3)c2cc1OC [A2]
Result block: 3.81

====

Molecular target: human EGF-R (Homo sapiens, UniProt P00533)
Construct: expressed in transfected cells; host or cells: NIH3T3 clone C7 (mouse fibroblasts)
Sequence (P00533 25-1210): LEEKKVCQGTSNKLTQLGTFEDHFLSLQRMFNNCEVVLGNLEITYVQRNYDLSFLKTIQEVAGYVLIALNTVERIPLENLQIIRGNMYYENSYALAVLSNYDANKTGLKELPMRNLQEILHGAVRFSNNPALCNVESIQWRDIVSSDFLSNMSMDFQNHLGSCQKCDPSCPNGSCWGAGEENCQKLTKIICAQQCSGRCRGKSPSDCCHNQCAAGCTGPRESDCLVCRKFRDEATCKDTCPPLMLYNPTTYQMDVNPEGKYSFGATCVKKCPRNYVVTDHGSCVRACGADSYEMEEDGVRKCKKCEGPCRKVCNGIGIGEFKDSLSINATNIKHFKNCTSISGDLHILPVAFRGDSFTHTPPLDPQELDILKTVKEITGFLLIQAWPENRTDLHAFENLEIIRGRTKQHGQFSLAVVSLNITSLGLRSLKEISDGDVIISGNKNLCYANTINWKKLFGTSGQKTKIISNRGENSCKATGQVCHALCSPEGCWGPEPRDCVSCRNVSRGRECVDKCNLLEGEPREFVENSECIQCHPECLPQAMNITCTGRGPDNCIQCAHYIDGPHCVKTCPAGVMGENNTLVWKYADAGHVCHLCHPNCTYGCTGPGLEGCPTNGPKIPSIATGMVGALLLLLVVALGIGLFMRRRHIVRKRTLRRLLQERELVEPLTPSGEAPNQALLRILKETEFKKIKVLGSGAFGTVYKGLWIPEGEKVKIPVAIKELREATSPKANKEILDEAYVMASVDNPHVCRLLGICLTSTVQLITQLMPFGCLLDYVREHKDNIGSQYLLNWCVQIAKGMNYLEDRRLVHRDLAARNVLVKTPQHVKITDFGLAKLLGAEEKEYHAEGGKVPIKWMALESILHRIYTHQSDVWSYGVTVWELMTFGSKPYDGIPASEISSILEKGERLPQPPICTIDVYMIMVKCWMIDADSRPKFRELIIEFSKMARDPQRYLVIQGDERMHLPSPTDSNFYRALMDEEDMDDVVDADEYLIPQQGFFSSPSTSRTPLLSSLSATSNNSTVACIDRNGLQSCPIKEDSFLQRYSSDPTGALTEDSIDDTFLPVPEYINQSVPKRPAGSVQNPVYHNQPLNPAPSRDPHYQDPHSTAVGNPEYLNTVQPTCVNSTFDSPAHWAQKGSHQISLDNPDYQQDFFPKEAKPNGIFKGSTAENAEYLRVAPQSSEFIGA
Assay: EGF-R whole cell kinase assay (EGF-R-3T3 ELISA)
Type: cell-based
observation.type: inhibition of EGF-stimulated EGF-R phosphorylation (in words)

# annotated cases, reported inhibition of EGF-stimulated EGF-R phosphorylation (in words) shown
COc1cc2ncnc(Nc3cccc(Cl)c3)c2cc1OC able to inhibit
Cc1ccc2ncnc(Nc3cccc(C(F)(F)F)c3)c2c1 able to inhibit
COc1cc2ncnc(Nc3cccc(C#N)c3)c2cc1OC able to inhibit
Cc1ccc2ncnc(Nc3cccc(Cl)c3)c2c1 able to inhibit

Okay, next one:
Query block: Determine from records and report inhibition of EGF-stimulated EGF-R phosphorylation (in words) for COc1cc2ncnc(Nc3cccc(C(F)(F)F)c3)c2cc1OC
Result block: able to inhibit

====

System: BT474
Experiment: Cell growth (SRB), BT474
Type: cell-based
Settings: Homo sapiens, BT-474, 96 h; RTK Her-2, 4 day incubation
observation.type: IC50 (µM)
Respond with the bare value in µM.

Query block: Determine from records and report IC50 for COc1cc2ncnc(Nc3cccc(Br)c3)c2cc1OC
Result block: 0.9

====

System: NIH 3T3 C7 cells engineered to express EGF-R (3T3-EGFR)
Assay: 3T3 cell growth assay, EGF-R C7 cells (3T3-EGFR)
Format: cell-based
Conditions: Mus musculus, NIH3T3, 96 h; cell growth, 4 days; free base; read-out: 3T3-EGFR IC50
Procedure: The efficacy of the above identified compounds in inhibiting or reducing EGF-R stimulated proliferation is measured by the 3T3 cell growth assay. The 3T3 growth assay was carried out as follows: EGF-RC7 (NIH 3T3 C7 cells engineered to express EGF-R) and NIH 3T3C7 cells (as the control) were used for this assay. […] Read the plate at dual wavelengths at 570 nm and 630 nm on Dynatech Elisa plate reader.
observation.type: IC50
Number first, unit second.

Cc1ccc2ncnc(Nc3cccc(C(F)(F)F)c3)c2c1 6000 nM
COc1cc2ncnc(Nc3cccc(C(F)(F)F)c3)c2cc1OC 400 nM
COc1cc2ncnc(Nc3cccc(C#N)c3)c2cc1OC 1500 nM

Okay, next one:
Query block: Provide IC50, tested on NIH 3T3 C7 cells engineered to express EGF-R (3T3-EGFR), for Cc1ccc2ncnc(Nc3cccc(Cl)c3)c2c1 .
Result block: 2000 nM

====

Target: IR (Homo sapiens, UniProt P06213)
Sequence (P06213 763-1382 limits assumed): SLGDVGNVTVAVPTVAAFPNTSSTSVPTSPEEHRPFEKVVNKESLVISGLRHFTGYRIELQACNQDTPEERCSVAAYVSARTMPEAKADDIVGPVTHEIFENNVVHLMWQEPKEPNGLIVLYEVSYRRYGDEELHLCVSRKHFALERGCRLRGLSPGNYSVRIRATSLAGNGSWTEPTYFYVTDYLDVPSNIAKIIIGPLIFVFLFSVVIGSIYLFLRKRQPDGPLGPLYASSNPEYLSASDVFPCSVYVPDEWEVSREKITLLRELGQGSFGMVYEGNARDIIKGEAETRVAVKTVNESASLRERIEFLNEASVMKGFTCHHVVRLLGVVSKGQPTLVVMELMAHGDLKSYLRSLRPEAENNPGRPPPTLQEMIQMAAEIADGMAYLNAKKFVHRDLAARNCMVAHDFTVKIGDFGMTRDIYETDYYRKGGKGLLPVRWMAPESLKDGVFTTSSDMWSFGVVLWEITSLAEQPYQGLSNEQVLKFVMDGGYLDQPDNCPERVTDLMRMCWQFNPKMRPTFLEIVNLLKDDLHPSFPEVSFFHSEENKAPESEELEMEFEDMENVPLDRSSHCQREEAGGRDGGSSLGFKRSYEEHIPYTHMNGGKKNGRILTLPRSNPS
Sequence (P06213 28-758 partner limits assumed): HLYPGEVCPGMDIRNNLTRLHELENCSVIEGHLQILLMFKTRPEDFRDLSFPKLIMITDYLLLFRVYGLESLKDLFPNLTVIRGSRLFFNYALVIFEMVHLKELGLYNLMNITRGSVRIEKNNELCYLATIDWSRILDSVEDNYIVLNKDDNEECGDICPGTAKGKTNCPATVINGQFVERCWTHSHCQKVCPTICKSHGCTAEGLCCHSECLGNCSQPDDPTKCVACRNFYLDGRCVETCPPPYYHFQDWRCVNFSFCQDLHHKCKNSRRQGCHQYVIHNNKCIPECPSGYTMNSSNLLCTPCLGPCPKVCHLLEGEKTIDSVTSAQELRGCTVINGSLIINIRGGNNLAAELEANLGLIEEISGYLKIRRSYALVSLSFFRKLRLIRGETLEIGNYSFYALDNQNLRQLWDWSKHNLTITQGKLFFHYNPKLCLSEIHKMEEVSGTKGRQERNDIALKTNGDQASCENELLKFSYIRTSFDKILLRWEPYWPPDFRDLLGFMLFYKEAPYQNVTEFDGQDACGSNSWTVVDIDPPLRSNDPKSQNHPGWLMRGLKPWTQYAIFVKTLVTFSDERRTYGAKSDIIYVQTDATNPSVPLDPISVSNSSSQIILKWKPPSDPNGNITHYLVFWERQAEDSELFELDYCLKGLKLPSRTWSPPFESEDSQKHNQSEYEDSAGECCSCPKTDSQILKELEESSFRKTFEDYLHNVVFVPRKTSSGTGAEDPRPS
Assay: Insulin-stimulated receptor phosphorylation ELISA, 3T3-IR
Details: ligand Insulin, 2 hr pretreatment
pIC50: −log10 of the molar value.
observation.type: pIC50

Query block: Determine from records and report pIC50 for COc1cc2ncnc(Nc3cccc(Br)c3)c2cc1OC
Result block: < 4.00
